test.target: transthyretin (Homo sapiens, UniProt P02766)
test.summary: acid-induced amyloid fibril formation, turbidity at […] nm, […] compound and […] TTR
Assay type: biochemical
Structures can show the parent of a compound that is named as a salt.
Could you please mark true for values of Fibril Formation (%) below 30 % fibril formation and false for values at or above it?

Asked: Consider the compound O=S(=O)(O)Oc1ccc(-c2ccc(Cl)cc2)cc1 [4′-PCB 3 sulfate, 4-chloro-4′-sulfooxy-biphenyl] . Is its Fibril Formation (%) strictly less than 30 % fibril formation?
Given back: false

Asked: Same question for O=S(=O)(O)Oc1ccc(-c2ccc(Cl)c(Cl)c2)c(Cl)c1 [4-PCB 33 sulfate, 2,3′,4′-trichloro-4-sulfooxy-biphenyl] please.
Given back: true

Asked: Same question for Oc1c(Cl)cc(-c2ccc(Cl)c(Cl)c2)cc1Cl [4′-OHPCB 79, 3,3′,4′,5-tetrachloro-biphenyl-4-ol, reference compound] please.
Given back: false

Asked: Same question for Oc1cccc(-c2ccc(Cl)cc2)c1 [3′-OHPCB 3, 4′-chloro-biphenyl-3-ol] please.
Given back: false

Asked: Same question for O=S(=O)(O)Oc1ccc(-c2cccc(Cl)c2)cc1Cl [4-PCB 11 sulfate, 3,3′-dichloro-4-sulfooxy-biphenyl] please.
Given back: true

Asked: Same question for O=S(=O)(O)Oc1ccc(-c2cc(Cl)ccc2Cl)cc1Cl [4′-PCB 26 sulfate, 2,3′,5-trichloro-4′-sulfooxy-biphenyl] please.
Given back: true

Asked: Same question for O=C(O)c1ccccc1Nc1cccc(C(F)(F)F)c1 [Flufenamic acid, reference compound] please.
Given back: true

Asked: Same question for Oc1ccc(-c2cccc(Cl)c2)cc1Cl [4-OHPCB 11, 3,3′-dichloro-biphenyl-4-ol] please.
Given back: true
